Entries and their TL1A Binding Level (Early)
SUBJECT OF TEST: T1, human TL1A extracellular domain with N-terminal HIS and FLAG tag (human, UniProt O95150 72-251)
T1 construct: whole entry named. ~70 kDa fraction purified by gel filtration
T1 sequence: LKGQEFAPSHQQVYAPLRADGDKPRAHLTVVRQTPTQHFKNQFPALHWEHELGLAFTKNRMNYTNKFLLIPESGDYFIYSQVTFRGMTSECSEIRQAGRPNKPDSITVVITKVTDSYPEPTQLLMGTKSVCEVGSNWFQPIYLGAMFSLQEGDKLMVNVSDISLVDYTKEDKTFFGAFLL
PROCEDURE DETAILS: SPR run 2; supernatant on Protein A; TL1A 10 ug/mL; timepoint 44
Kindly provide the numeric value in RU only, without the unit symbol.

{"BINDER": "320-230 (antibody, human IgG1, name in Kabat numbering, V domains shown, human IgG1, lambda) VH: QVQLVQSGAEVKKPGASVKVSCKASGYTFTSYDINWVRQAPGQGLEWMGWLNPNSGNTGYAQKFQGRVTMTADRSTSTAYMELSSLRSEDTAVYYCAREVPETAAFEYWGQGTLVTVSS VL: QSVLTQPPSVSGAPGQRVTISCTSSSLDIGAGLGVHWYQQLPGTAPKLLIEGYYNRPSGVPDRFSGSKSGTSASLTITGLLPEDEGDYYCQSYDGTLSALFGGGTKLTVLG", "RECORDED METRIC": "TL1A Binding Level (Early)", "QUANTITATIVE READOUT": 245}

Inquiry: Give the measured TL1A Binding Level (Early) for 320-199 (antibody, human IgG1, name in Kabat numbering, V domains shown, human IgG1, lambda) VH: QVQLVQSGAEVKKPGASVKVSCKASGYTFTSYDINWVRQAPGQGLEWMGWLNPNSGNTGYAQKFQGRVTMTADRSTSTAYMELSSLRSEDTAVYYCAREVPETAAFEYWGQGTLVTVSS VL: QSVLTQPPSVSGAPGQRVTISCWSSSSDIGAGLGVHWYQQLPGTAPKLLIEGYYNRPSGVPDRFSGSKSGTSASLTITGLLPEDEGDYYCQSYDGTLSALFGGGTKLTVLG
Reply text: 251

Inquiry: Give the measured TL1A Binding Level (Early) for 320-227 (antibody, human IgG1, name in Kabat numbering, V domains shown, human IgG1, lambda) VH: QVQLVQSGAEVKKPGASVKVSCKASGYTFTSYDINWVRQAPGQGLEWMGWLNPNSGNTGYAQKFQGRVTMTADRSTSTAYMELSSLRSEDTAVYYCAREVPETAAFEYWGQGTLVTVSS VL: QSVLTQPPSVSGAPGQRVTISCTSSSDDIGAGLGVHWYQQLPGTAPKLLIEGYYNRPSGVPDRFSGSKSGTSASLTITGLLPEDEGDYYCQSYDGTLSALFGGGTKLTVLG
Reply text: 242

Inquiry: Give the measured TL1A Binding Level (Early) for 320-233 (antibody, human IgG1, name in Kabat numbering, V domains shown, human IgG1, lambda) VH: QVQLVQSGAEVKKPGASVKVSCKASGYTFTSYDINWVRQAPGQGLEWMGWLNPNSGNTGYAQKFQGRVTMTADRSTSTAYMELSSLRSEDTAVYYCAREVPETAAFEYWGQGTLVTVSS VL: QSVLTQPPSVSGAPGQRVTISCTSSSSAIGAGLGVHWYQQLPGTAPKLLIEGYYNRPSGVPDRFSGSKSGTSASLTITGLLPEDEGDYYCQSYDGTLSALFGGGTKLTVLG
Reply text: 255

Inquiry: Give the measured TL1A Binding Level (Early) for 320-246 (antibody, human IgG1, name in Kabat numbering, V domains shown, human IgG1, lambda) VH: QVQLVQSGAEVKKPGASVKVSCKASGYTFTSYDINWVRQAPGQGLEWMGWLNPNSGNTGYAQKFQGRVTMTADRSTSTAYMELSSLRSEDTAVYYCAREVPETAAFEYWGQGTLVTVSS VL: QSVLTQPPSVSGAPGQRVTISCTSSSSDKGAGLGVHWYQQLPGTAPKLLIEGYYNRPSGVPDRFSGSKSGTSASLTITGLLPEDEGDYYCQSYDGTLSALFGGGTKLTVLG
Reply text: 32
